# System: MOG-G-UVW (Low Grade Glioma)
# MEASUREMENT_PROTOCOL: combination Emax (second highest fraction inhibited in the dose matrix, 72 h); higher = more inhibition; extreme values may be limits of the assay
Decision: combination Emax >= 0.7 yields met, all other cases yield not met.

CCN(CCO)CCCOc1ccc2c(Nc3cc(CC(=O)Nc4cccc(F)c4)[nH]n3)ncnc2c1 [AZD2811] + O=C(c1cc(Cc2n[nH]c(=O)c3ccccc23)ccc1F)N1CCN(C(=O)C2CC2)CC1 [Olaparib] (first compound max 1 µM, 7x7, partner max 10 µM)
not met
O=C(c1cc(Cc2n[nH]c(=O)c3ccccc23)ccc1F)N1CCN(C(=O)C2CC2)CC1 [Olaparib] + COc1nnc2ccc(N3CCC(c4ccc(OCCN5CCN(C)C(=O)[C@H]5C)cc4)CC3)nn12 [AZD5153] (first compound max 10 µM, 7x7, partner max 1 µM)
not met
N#Cc1cnc(Nc2cc(NC[C@H]3CNCCO3)c(C(F)(F)F)cn2)cn1 [SRA737] + Nc1ccn([C@@H]2O[C@H](CO)[C@@H](O)C2(F)F)c(=O)n1 [Gemcitabine] (first compound max 10 µM, 7x7, partner max 0.3 µM)
met

Form field: combination Emax at least 0.7? Entry: COc1cccc(OCCCN)c1-c1cc(Nc2cnc(C#N)cn2)n[nH]1 [Prexasertib] + CN(C)CCCOc1ccc(-c2ccc3ncc4c(c3c2)n(C2CCOCC2)c(=O)n4C)cn1 [AZD0156] (first compound max 1 µM, 7x7, partner max 1 µM) met

Please tell me: is the compound C=CCn1c(=O)c2cnc(Nc3ccc(N4CCN(C)CC4)cc3)nc2n1-c1cccc(C(C)(C)O)n1 [AZD1775] + Nc1ccn([C@@H]2O[C@H](CO)[C@@H](O)C2(F)F)c(=O)n1 [Gemcitabine] (first compound max 1 µM, partner max 0.3 µM) at or over 0.7 in terms of combination Emax? met

Answer whether combination Emax of CC(=O)c1c(C)c2cnc(Nc3ccc(N4CCNCC4)cn3)nc2n(C2CCCC2)c1=O [Palbociclib] + Cc1c2c(nn1C)CSCc1cc(n(C)n1)CSc1cc(c3ccccc3c1)OCCCc1c(C(=O)O)n(C)c3c-2c(Cl)ccc13 [AZD5991] (first compound max 10 µM, 7x7, partner max 1 µM) is greater than or equal to 0.7. not met

====

# Test system: SW982 (Other Solid Carcinomas)
# MEASUREMENT_PROTOCOL: Bliss excess, mean over the matrix (fraction); higher = more synergy
Examples of compounds with documented Bliss excess follow.
Keep the answer to the number alone.

For orientation, consider the following solved cases.
CN(C)CCCOc1ccc(-c2ccc3ncc4c(c3c2)n(C2CCOCC2)c(=O)n4C)cn1 [AZD0156] + C=CCn1c(=O)c2cnc(Nc3ccc(N4CCN(C)CC4)cc3)nc2n1-c1cccc(C(C)(C)O)n1 [AZD1775] (first compound max 1 µM, partner max 1 µM)
-0.0676
Cn1cnc2c(F)c(Nc3ccc(Br)cc3Cl)c(C(=O)NOCCO)cc21 [Selumetinib] + C=CCn1c(=O)c2cnc(Nc3ccc(N4CCN(C)CC4)cc3)nc2n1-c1cccc(C(C)(C)O)n1 [AZD1775] (first compound max 10 µM, partner max 1 µM)
-0.0112
Cc1nc(-c2cn3c(n2)-c2ccc(-c4cnn(C(C)(C)C(N)=O)c4)cc2OCC3)n(C(C)C)n1 [Taselisib] + O=C(Nc1ccc2[nH]nc(-c3ccncc3)c2c1)[C@@H]1CCN(CC(=O)N2CCN(c3ccc(-c4ncccn4)cc3)CC2)C1 [SCH772984] (first compound max 10 µM, 7x7, partner max 5 µM)
-0.0167

Can you share its Bliss excess? I mean this compound: CCN(CCO)CCCOc1ccc2c(Nc3cc(CC(=O)Nc4cccc(F)c4)[nH]n3)ncnc2c1 [AZD2811] + C=CCn1c(=O)c2cnc(Nc3ccc(N4CCN(C)CC4)cc3)nc2n1-c1cccc(C(C)(C)O)n1 [AZD1775] (first compound max 1 µM, partner max 1 µM) -0.0501

Record request: Bliss excess value, item O=C(c1cc(Cc2n[nH]c(=O)c3ccccc23)ccc1F)N1CCN(C(=O)C2CC2)CC1 [Olaparib] + COc1nnc2ccc(N3CCC(c4ccc(OCCN5CCN(C)C(=O)[C@H]5C)cc4)CC3)nn12 [AZD5153] (first compound max 10 µM, 7x7, partner max 1 µM) -0.0614

====

# System: OACM5-1 (Esophageal Adenocarcinoma)
# MEASUREMENT_PROTOCOL: Bliss excess, mean over the matrix (fraction); higher = more synergy
QUANTITY: Bliss excess
The reply should be a number, written without any unit.

CN(CCO)CC[C@H](CSc1ccccc1)Nc1ccc(S(=O)(=O)NC(=O)c2ccc(N3CCC([C@@H](O)c4ccccc4-c4ccc(Cl)cc4)CC3)cc2)cc1S(=O)(=O)C(F)(F)F [AZD4320] + CN(C)CCCOc1ccc(-c2ccc3ncc4c(c3c2)n(C2CCOCC2)c(=O)n4C)cn1 [AZD0156] (first compound max 1 µM, 7x7, partner max 1 µM)
-0.0016
CC(=O)c1c(C)c2cnc(Nc3ccc(N4CCNCC4)cn3)nc2n(C2CCCC2)c1=O [Palbociclib] + CC1(C)CCC(CN2CCN(c3ccc(C(=O)NS(=O)(=O)c4ccc(NCC5CCOCC5)c([N+](=O)[O-])c4)c(Oc4cnc5[nH]ccc5c4)c3)CC2)=C(c2ccc(Cl)cc2)C1 [Venetoclax] (first compound max 10 µM, 7x7, partner max 1 µM)
0.108

Please give the measured Bliss excess for this compound: COc1cccc(OCCCN)c1-c1cc(Nc2cnc(C#N)cn2)n[nH]1 [Prexasertib] + Cc1cc2ncnn2cc1Nc1ncc2c(n1)n(C1CCOCC1)c(=O)n2C [AZD7648] (first compound max 1 µM, 7x7, partner max 10 µM) -0.026

====

# System: SNU-387 (Hepatocellular Carcinoma)
# MEASUREMENT_PROTOCOL: combination Emax (second highest fraction inhibited in the dose matrix, 72 h); higher = more inhibition; extreme values may be limits of the assay
QUANTITY: combination Emax
Give the value as a plain number.

NC1(C(=O)N[C@@H](CCO)c2ccc(Cl)cc2)CCN(c2ncnc3[nH]ccc23)CC1 [Capivasertib] + CC(=O)c1c(C)c2cnc(Nc3ccc(N4CCNCC4)cn3)nc2n(C2CCCC2)c1=O [Palbociclib] (first compound max 10 µM, 7x7, partner max 10 µM)
0.312
N#Cc1cnc(Nc2cc(NC[C@H]3CNCCO3)c(C(F)(F)F)cn2)cn1 [SRA737] + CCc1c2c(nc3ccc(O)cc13)-c1cc3c(c(=O)n1C2)COC(=O)[C@]3(O)CC [SN-38] (first compound max 10 µM, 7x7, partner max 0.3 µM)
0.548
Cc1c2c(nn1C)CSCc1cc(n(C)n1)CSc1cc(c3ccccc3c1)OCCCc1c(C(=O)O)n(C)c3c-2c(Cl)ccc13 [AZD5991] + CS(=O)(=O)CCNCc1ccc(-c2ccc3ncnc(Nc4ccc(OCc5cccc(F)c5)c(Cl)c4)c3c2)o1 [Lapatinib] (first compound max 1 µM, 7x7, partner max 10 µM)
0.459
Cc1c2c(nn1C)CSCc1cc(n(C)n1)CSc1cc(c3ccccc3c1)OCCCc1c(C(=O)O)n(C)c3c-2c(Cl)ccc13 [AZD5991] + CCN(CCO)CCCOc1ccc2c(Nc3cc(CC(=O)Nc4cccc(F)c4)[nH]n3)ncnc2c1 [AZD2811] (first compound max 1 µM, 7x7, partner max 1 µM)
0.458
CS(=O)(=O)CCNCc1ccc(-c2ccc3ncnc(Nc4ccc(OCc5cccc(F)c5)c(Cl)c4)c3c2)o1 [Lapatinib] + Cn1cnc2c(F)c(Nc3ccc(Br)cc3Cl)c(C(=O)NOCCO)cc21 [Selumetinib] (first compound max 10 µM, 7x7, partner max 10 µM)
0.62
COc1nnc2ccc(N3CCC(c4ccc(OCCN5CCN(C)C(=O)[C@H]5C)cc4)CC3)nn12 [AZD5153] + CCN(CCO)CCCOc1ccc2c(Nc3cc(CC(=O)Nc4cccc(F)c4)[nH]n3)ncnc2c1 [AZD2811] (first compound max 1 µM, 7x7, partner max 1 µM)
0.487

Sample CCN(CCO)CCCOc1ccc2c(Nc3cc(CC(=O)Nc4cccc(F)c4)[nH]n3)ncnc2c1 [AZD2811] + O=C(c1cc(Cc2n[nH]c(=O)c3ccccc23)ccc1F)N1CCN(C(=O)C2CC2)CC1 [Olaparib] (first compound max 1 µM, 7x7, partner max 10 µM) — what was its combination Emax? 0.17

====

Entries and their measured Bliss excess follow.
# System: OACM5-1 (Esophageal Adenocarcinoma)
# MEASUREMENT_PROTOCOL: Bliss excess, mean over the matrix (fraction); higher = more synergy

Some solved cases for reference:
CN(C)CCCOc1ccc(-c2ccc3ncc4c(c3c2)n(C2CCOCC2)c(=O)n4C)cn1 [AZD0156] + C=CCn1c(=O)c2cnc(Nc3ccc(N4CCN(C)CC4)cc3)nc2n1-c1cccc(C(C)(C)O)n1 [AZD1775] (first compound max 1 µM, partner max 1 µM)
-0.051
COc1cc2ncnc(Nc3ccc(F)c(Cl)c3)c2cc1OCCCN1CCOCC1 [Gefitinib] + CC(C)n1c(=O)n(C)c2cnc3cc(F)c(-c4ccc(OCCCN5CCCCC5)nc4)cc3c21 [AZD1390] (first compound max 10 µM, 7x7, partner max 0.3 µM)
-0.112
CC1(C)CCC(CN2CCN(c3ccc(C(=O)NS(=O)(=O)c4ccc(NCC5CCOCC5)c([N+](=O)[O-])c4)c(Oc4cnc5[nH]ccc5c4)c3)CC2)=C(c2ccc(Cl)cc2)C1 [Venetoclax] + C1CN(CCC1(C(=O)N[C@@H](CCO)C2=CC=C(C=C2)Cl)N)C3=NC=NC4=C3C=CN4 [Capivasertib] (first compound max 1 µM, 7x7, partner max 3 µM)
0.0191

Query: Bliss excess; subject: Cc1c2c(nn1C)CSCc1cc(n(C)n1)CSc1cc(c3ccccc3c1)OCCCc1c(C(=O)O)n(C)c3c-2c(Cl)ccc13 [AZD5991] + C[C@@H]1COCCN1C2=NC(=NC(=C2)C3(CC3)[S@](=N)(=O)C)C4=C5C=CNC5=NC=C4 [AZD6738] (first compound max 1 µM, 7x7, partner max 10 µM) 0.0257

Each recorded value in this set is attributed to the supplement of paper PMC11061612.
